test system: HEK-293T; test: Multiplex assay against HEK293T; format: toxicity, cell-based; conditions: human, 12 h, 1 µM, compound concentration 1 uM
reported.property: Population Fragmented Nuclei (%)

{"molecule": "Cc1nn(C)c2nc(NNC(=O)Nc3cc(Cl)nc(Cl)c3)cc(C(C)C)c12", "reported.property": "Population Fragmented Nuclei (%)", "data.value": 5}
{"molecule": "CC(/C=C1\\SC(=S)N(CCCC(=O)Nc2ccc(C(=O)O)c(O)c2)C1=O)=C\\c1ccccc1", "reported.property": "Population Fragmented Nuclei (%)", "data.value": 6}
{"molecule": "O=C(NCCN1CCC(n2c(=O)[nH]c3cc(Cl)ccc32)CC1)c1ccc(F)cc1 [HALOPEMIDE]", "reported.property": "Population Fragmented Nuclei (%)", "data.value": 5}
{"molecule": "CN(C)C(=O)Cn1cc(-c2ccc(-c3nnc4ccccn34)cc2)cn1", "reported.property": "Population Fragmented Nuclei (%)", "data.value": 7}
{"molecule": "Cc1ccc(-c2ccc(F)cc2COc2ccc(CCC(=O)O)cc2)cc1", "reported.property": "Population Fragmented Nuclei (%)", "data.value": 6}

====

test system: U2OS; assay: Multiplex assay against U2OS; type: toxicity, cell-based; settings: human, 48 h, 1 µM, compound concentration 1 uM
reported.property: Population Pyknosed Nuclei (%)

{"smiles.structure": "COc1ccccc1N1CCN(CCCCNC(=O)c2ccc3ccccc3c2)CC1.Cl", "data.value": 9}
{"smiles.structure": "c1cc(OCCCN2CCCCC2)ccc1CN1CCCCC1", "data.value": 8}
{"smiles.structure": "O=C(Nc1cc(-c2ccccc2)nn1-c1ccccc1F)c1ccc([N+](=O)[O-])cc1", "data.value": 8}
{"smiles.structure": "COc1cccc2c1c(NS(=O)(=O)c1ccc(Cl)s1)nn2Cc1cccc(CNC(=O)C(C)(C)O)c1", "data.value": 9}
{"smiles.structure": "Cc1c(Cc2ccc3ccccc3n2)c2cc(F)ccc2n1CC(=O)O", "data.value": 6}
{"smiles.structure": "CN1CCN(c2nc3cc(C(F)(F)F)ccc3n3cccc23)CC1.O=C(O)/C=C\\C(=O)O.O=C(O)/C=C\\C(=O)O", "data.value": 7}

====

test system: HEK-293T; experiment: Multiplex assay against HEK293T; type: toxicity, cell-based; conditions: human, 24 h, 10 µM, compound concentration 10 uM
reported.property: Population Normal (%)

{"compound": "CC(=O)NCC(=O)N1[C@@H]2CC[C@H]1c1ccc(Nc3ncc(C(F)(F)F)c(NC4CCC4)n3)cc12", "target": "HEK-293T", "data.value": 100}
{"compound": "CN(C)CCCn1cc(C2=C(c3c[nH]c4ccccc34)C(=O)NC2=O)c2ccccc21", "target": "HEK-293T", "data.value": 100}
{"compound": "COc1cccc2c1c(NS(=O)(=O)c1ccc(Cl)s1)nn2Cc1cccc(CNC(=O)C(C)(C)O)c1", "target": "HEK-293T", "data.value": 94}
{"compound": "Cc1cc(C)c(NC(=O)C2CC3CCC2C3)c(C)c1 (configuration not stated)", "target": "HEK-293T", "data.value": 100}
{"compound": "O=C(NCCN1CCC(n2c(=O)[nH]c3cc(Cl)ccc32)CC1)c1ccc(F)cc1 [HALOPEMIDE]", "target": "HEK-293T", "data.value": 91}
{"compound": "CN(C)Cc1cccc(NC(=C2C(=O)Nc3cc(C(=O)N(C)C)ccc32)c2ccccc2)c1", "target": "HEK-293T", "data.value": 100}
{"compound": "COCCNc1cc(NC(=O)N2CCCc3cc(CN4CCN(C)CC4=O)c(C=O)nc32)ncc1C#N", "target": "HEK-293T", "data.value": 100}
{"compound": "NCCc1cn(S(=O)(=O)c2c(Cl)nc3sccn23)c2ccccc12.O=C(O)C(=O)O", "target": "HEK-293T", "data.value": 65}
{"compound": "Cc1cc(Nc2ncc(Cl)c(Nc3ccccc3S(=O)(=O)C(C)C)n2)c(OC(C)C)cc1C1CCNCC1", "target": "HEK-293T", "data.value": 100}
{"compound": "Cc1cc(C)cc(C(=O)NOCCCCCC(=O)NO)c1", "target": "HEK-293T", "data.value": 100}
{"compound": "CC(C)(O)c1cnc(N2C[C@@]3(CCC[C@](C)(Cn4cnc5ccc(C#N)cc54)C3)OC2=O)cn1", "target": "HEK-293T", "data.value": 100}
{"compound": "C[C@H](C[C@H](N)C(=O)O)C(=O)O [2S,4R-4-METHYLGLUTAMATE]", "target": "HEK-293T", "data.value": 100}

====

tested on: HEK-293T; assay: Multiplex assay against HEK293T; format: toxicity, cell-based; settings: human, 48 h, 1 µM, compound concentration 1 uM
Each entry below carries its reported Population Hoechst High Intensity Objects (%).
reported.property: Population Hoechst High Intensity Objects (%)

{"molecule": "O=C(Nc1cc(C(F)(F)F)ccc1N1CCCCC1)c1ccncc1", "target": "HEK-293T", "uom": "%", "data.value": 0}
{"molecule": "CC(C)CNc1nc(N2CCN(CC3CCCOC3)CC2)ncc1C(=O)NCc1ccccc1 (stereo not drawn)", "target": "HEK-293T", "uom": "%", "data.value": 0}
{"molecule": "COc1cccc2c1c(NS(=O)(=O)c1ccc(Cl)s1)nn2Cc1cccc(CNC(=O)C(C)(C)O)c1", "target": "HEK-293T", "uom": "%", "data.value": 2}
{"molecule": "COCCNc1cc(NC(=O)N2CCCc3cc(CN4CCN(C)CC4=O)c(C=O)nc32)ncc1C#N [FGF401]", "target": "HEK-293T", "uom": "%", "data.value": 0}
{"molecule": "CC(=O)NCC(=O)N1[C@@H]2CC[C@H]1c1ccc(Nc3ncc(C(F)(F)F)c(NC4CCC4)n3)cc12 [PF-03814735]", "target": "HEK-293T", "uom": "%", "data.value": 0}
{"molecule": "O=C1CSC(=O)N1C(CCc1ccncc1)COc1ccc(-c2cccc([N+](=O)[O-])c2)cc1 (stereo not drawn)", "target": "HEK-293T", "uom": "%", "data.value": 0}
{"molecule": "CN(C)CCCn1cc(C2=C(c3c[nH]c4ccccc34)C(=O)NC2=O)c2ccccc21 [GF-109203]", "target": "HEK-293T", "uom": "%", "data.value": 0}
{"molecule": "CN1C[C@H](C(=O)N[C@]2(C)O[C@@]3(O)[C@@H]4CCCN4C(=O)[C@H](Cc4ccccc4)N3C2=O)C[C@@H]2c3cccc4[nH]cc(c34)C[C@H]21.CS(=O)(=O)O [DIHYDROERGOTAMINE MESYLATE]", "target": "HEK-293T", "uom": "%", "data.value": 2}

====

system: Fibroblast; test: Multiplex assay against human fibroblast; format: toxicity, cell-based; conditions: 48 h, 1 µM, compound concentration 1 uM
reported.property: Population Hoechst High Intensity Objects (%)

{"compound": "CN(C)CCCn1cc(C2=C(c3c[nH]c4ccccc34)C(=O)NC2=O)c2ccccc21", "target": "Fibroblast", "data.value": "0%"}
{"compound": "N#Cc1ccnc(Nc2cc(C3CCN(C4COC4)CC3)cc(N3CCC(F)(F)C3)n2)c1", "target": "Fibroblast", "data.value": "0%"}
{"compound": "CC(C)CNc1nc(N2CCN(CC3CCCOC3)CC2)ncc1C(=O)NCc1ccccc1 (centres undefined)", "target": "Fibroblast", "data.value": "0%"}
{"compound": "COc1cc(/C=C(\\C#N)C(=O)Nc2nnc(C(F)(F)F)s2)ccc1OCc1ccc(C(F)(F)F)cc1C(F)(F)F", "target": "Fibroblast", "data.value": "0%"}
{"compound": "Cn1ncnc1COc1nn2c(-c3cc(F)ccc3F)nnc2cc1C(C)(C)C", "target": "Fibroblast", "data.value": "0%"}
{"compound": "Nc1nccc(-c2ccn3c(N)nccc23)n1", "target": "Fibroblast", "data.value": "0%"}
{"compound": "O=C(Nc1cc(C(F)(F)F)ccc1N1CCCCC1)c1ccncc1", "target": "Fibroblast", "data.value": "0%"}
{"compound": "COCCNc1cc(NC(=O)N2CCCc3cc(CN4CCN(C)CC4=O)c(C=O)nc32)ncc1C#N", "target": "Fibroblast", "data.value": "0%"}
{"compound": "O=C(Nc1cc(-c2ccccc2)nn1-c1ccccc1F)c1ccc([N+](=O)[O-])cc1", "target": "Fibroblast", "data.value": "7%"}

====

system: Fibroblast; assay: Multiplex assay against human fibroblast; assay type: toxicity, cell-based; settings: 24 h, 10 µM, compound concentration 10 uM
reported.property: Population Hoechst High Intensity Objects (%)

{"molecule": "Cc1cc(C)cc(C(=O)NOCCCCCC(=O)NO)c1", "uom": "%", "data.value": 0}
{"molecule": "CN1CCN(c2cc(-c3ccccc3)nc(N)n2)CC1", "uom": "%", "data.value": 2}
{"molecule": "COCCNc1cc(NC(=O)N2CCCc3cc(CN4CCN(C)CC4=O)c(C=O)nc32)ncc1C#N [FGF401]", "uom": "%", "data.value": 0}
{"molecule": "CCOC(=O)c1cnn(-c2ccc(NC(=O)C(Cl)=C(Cl)Cl)cc2)c1C(F)(F)F", "uom": "%", "data.value": 0}
{"molecule": "COc1cc(/C=C(\\C#N)C(=O)Nc2nnc(C(F)(F)F)s2)ccc1OCc1ccc(C(F)(F)F)cc1C(F)(F)F", "uom": "%", "data.value": 0}
